# Tested Target: Heat shock protein HSP90 (Homo sapiens, UniProt P07900+P08238)
# Test Protocol: Inhibition of Hsp90 in human SKBR3 cells assessed as Her2 degradation after 24 hrs by Western blotting
# Assay type: cell-based
# Run Parameters: sk-br-3
Quantity Name: IC50 (µM)

A: Nc1ncnc2c1nc(Sc1cc3c(cc1Br)OCO3)n2CCCc1cn(CCCO)nn1
B: Nc1ncnc2c1nc(Sc1cc3c(cc1Br)OCO3)n2CCCc1cn(CCOCCOCCOCCOCCOCCOCCn2cc(CCCn3c(Sc4cc5c(cc4Br)OCO5)nc4c(N)ncnc43)nn2)nn1
Which record would sort first by descending IC50, A or B ? In your reply, give the label of the chosen option.
B
(B: 7.1 µM, A: 3.9 µM)

a: Nc1ncnc2c1nc(Sc1cc3c(cc1Br)OCO3)n2CCCCc1cn(CCOCCOCCOCCOCCOCCOCCn2cc(CCCCn3c(Sc4cc5c(cc4Br)OCO5)nc4c(N)ncnc43)nn2)nn1
b: C#CCCCCn1c(Sc2cc3c(cc2Br)OCO3)nc2c(N)ncnc21
Which record would sort first by descending IC50, a or b ? In your reply, give the label of the chosen option.
a

* * *

# Tested Target: Heat shock protein HSP 90-alpha (Homo sapiens, UniProt P07900)
# Test Protocol: Displacement of biotin-labeled geldanamycin from N-terminal His-tagged human recombinant HSP90alpha expressed in Escherichia coli
pIC50: −log10 of the molar value.
Quantity Name: pIC50

The examples below pair each entry with its known result.
1) Nc1ncnc2c1nc(Sc1cc3c(cc1Br)OCO3)n2CCCc1cn(CCOCCOCCOCCOCCOCCOCCOCCn2cc(CCCn3c(Sc4cc5c(cc4Br)OCO5)nc4c(N)ncnc43)nn2)nn1
5.96
2) C#CCCCn1c(Sc2cc3c(cc2Br)OCO3)nc2c(N)ncnc21
6.52

1: Nc1ncnc2c1nc(Sc1cc3c(cc1Br)OCO3)n2CCCc1cn(CCOCCOCCOCCOCCOCCOCCn2cc(CCCn3c(Sc4cc5c(cc4Br)OCO5)nc4c(N)ncnc43)nn2)nn1
2: Nc1ncnc2c1nc(Sc1cc3c(cc1Br)OCO3)n2CCCCc1cn(CCOCCOCCOCCOCCOCCOCCn2cc(CCCCn3c(Sc4cc5c(cc4Br)OCO5)nc4c(N)ncnc43)nn2)nn1
Which record would sort first by descending pIC50, 1 or 2 ? In your reply, give the label of the chosen option.
1

P: Nc1ncnc2c1nc(Sc1cc3c(cc1Br)OCO3)n2CCCc1cn(CCOCCOCCOCCOCCOCCn2cc(CCCn3c(Sc4cc5c(cc4Br)OCO5)nc4c(N)ncnc43)nn2)nn1
Q: Nc1ncnc2c1nc(Sc1cc3c(cc1Br)OCO3)n2CCCCc1cn(CCOCCOCCOCCOCCOCCn2cc(CCCCn3c(Sc4cc5c(cc4Br)OCO5)nc4c(N)ncnc43)nn2)nn1
R: C#CCCCCn1c(Sc2cc3c(cc2Br)OCO3)nc2c(N)ncnc21
S: Nc1ncnc2c1nc(Sc1cc3c(cc1Br)OCO3)n2CCCCc1cn(CCOCCOCCOCCOCCOCCOCCOCCn2cc(CCCCn3c(Sc4cc5c(cc4Br)OCO5)nc4c(N)ncnc43)nn2)nn1
Ascending by pIC50, please: list the molecules accordingly. Answer by naming the labels in the order asked.
Q, S, R, P

* * *

# Tested Target: Heat shock protein HSP90 (Homo sapiens, UniProt P07900+P08238)
# Test Protocol: Inhibition of Hsp90 in human SKBR3 cells assessed as Her2 degradation after 24 hrs by Western blotting
# Type: cell-based
# Run Parameters: sk-br-3
Quantity Name: IC50 (µM)

P: Nc1ncnc2c1nc(Sc1cc3c(cc1Br)OCO3)n2CCCCc1cn(CCCO)nn1
Q: Nc1ncnc2c1nc(Sc1cc3c(cc1Br)OCO3)n2CCCc1cn(CCOCCOCCOCCOCCOCCOCCOCCn2cc(CCCn3c(Sc4cc5c(cc4Br)OCO5)nc4c(N)ncnc43)nn2)nn1
Which record would sort first by descending IC50, P or Q ? In your reply, give the label of the chosen option.
Q
(Q: 9.2 µM, P: 2.9 µM)

* * *

# Tested Target: Heat shock protein HSP90 (Homo sapiens, UniProt P07900+P08238)
# Test Protocol: Inhibition of Hsp90 in human SKBR3 cells assessed as Her2 degradation after 24 hrs by Western blotting
# Type: cell-based
# Run Parameters: sk-br-3
Quantity Name: IC50 (µM)

1) Nc1ncnc2c1nc(Sc1cc3c(cc1Br)OCO3)n2CCCc1cn(CCOCCOCCOCCOCCOCCn2cc(CCCn3c(Sc4cc5c(cc4Br)OCO5)nc4c(N)ncnc43)nn2)nn1
6.3
2) Nc1ncnc2c1nc(Sc1cc3c(cc1Br)OCO3)n2CCCCc1cn(CCOCCOCCOCCOCCOCCOCCOCCn2cc(CCCCn3c(Sc4cc5c(cc4Br)OCO5)nc4c(N)ncnc43)nn2)nn1
4.2

I: Nc1ncnc2c1nc(Sc1cc3c(cc1Br)OCO3)n2CCCCc1cn(CCOCCOCCOCCOCCOCCn2cc(CCCCn3c(Sc4cc5c(cc4Br)OCO5)nc4c(N)ncnc43)nn2)nn1
II: C#CCCCn1c(Sc2cc3c(cc2Br)OCO3)nc2c(N)ncnc21
Hi! Which is lower in terms of IC50, the first one I or the second one II ? In your reply, give the label of the chosen option.
II
(II: 0.46 µM, I: 5.2 µM)
